target: DR4w4 (DRB1*0401) (Homo sapiens, UniProt P01903+P01911, A100K/A169T/F76Y/I96L/K127E/L162R/M171V/N62H/P40V/Q125Y/R42H/S133A/S149N/S66Y/V115G/V209L/W38E); assay: biochemical; assay type: binding
pIC50: −log10 of the molar value. No end group written: not given here.
Please use Fulfilled whenever pIC50 is not below 6, and Not fulfilled whenever it is.

Decide: is the reported value of pIC50 for HQVVPSLVASKTKAF [Peptide 90.0023] equal to or greater than 6?
Not fulfilled

Reported pIC50 reaches at least 6 for GRVNTHVHNPLLCSS [Peptide 1601.34] ?
Not fulfilled

In plain terms: is recorded pIC50 at least 6 for TNCMLIQPPKLRSTA [89,0046] ?
Not fulfilled

----------
Give measured pIC50 for each item. Keep answers brief.
target: A*2902 (Homo sapiens, UniProt P04439, A270S/D101N/D185E/E176V/E277Q/E87Q/F33T/G231S/H175R/I121M/I218V/I322F/K168Q/L300P/L318F/M331R/P208A/P217A/Q86L/T323A/T345S/V100A/V358M); assay: biochemical; type: binding
No end group written: not given here.
One number for each entry, as −log10 of the molar value.

# chain, assay-endpoint, assay-value
rows = [
    ("EYRHYNYSVY [Peptide 78.0180]", "pIC50", 4.80),
    ("ETDEEITGYLY [Peptide 9012.0180]", "pIC50", 6.56),
    ("VSDFRWYRY [Peptide 1549.43]", "pIC50", 6.62),
    ("LKEYVLDLY [Peptide 78.0250]", "pIC50", 5.48),
]

Could you share which pIC50 value was measured for VQEKILDLY [Peptide 86.0149] ?
4.77

----------
Would you kindly list IC50 for each of these sequences?
biological target: DRB5*0101 (Homo sapiens, UniProt P01903+Q30154); assay: biochemical; details: Binding affinity DRB5 *0101
No end group written: not given here.

I need IC50 for every entry listed below, if you could help.
1. NMSLLKHQSLRPDED [Peptide 68.0009]
2. VDFIVNDNDYLTQAE [Peptide 90.0031]
3. MLAVFKDTYGLSFTD [Peptide 90.0050]

> 20 µM
> 20 µM
18.3 µM

----------
target: HLA-A*0201 (HLA-A2.1) (Homo sapiens, UniProt P04439, D140Y/D185E/D98H/E176V/E277Q/G131W/G231S/I119V/I121R/I166T/I218V/L300P/L318F/N151K/N90K/P208A/P217A/Q86G/Q94H/R138H/R169H/T345S); assay: biochemical; assay type: binding
assay-endpoint: binding to HLA-A2.1 (column 3; no allele head shown for these rows)
Numbers only.

Below are worked cases with known answers.
# chain, assay-value
rows = [
    ("IMPKAGLLI", 0.0064),
    ("MLESVIKNYK", 0),
    ("QAALSRKVA", 0),
]

For the 6 sequences below, give their binding to HLA-A2.1 (column 3; no allele head shown for these rows) values.
1. VAELVHFLL
2. EAQQEALGLV
3. GASAFPTTI
4. AATSSSSPL
5. SAYGEPRKL
6. KASESLQLV

[0, 0, 0, 0, 0.0002, 0.0009]
